# Target Or Test System: Recombinant human MASP2 enzyme (fragment corresponding to amino acids 297-686, C-terminal His Tag) (human, UniProt O00187 297-686)
# Sequence (O00187 other isoform, or with tags, fused parts or gaps limits assumed): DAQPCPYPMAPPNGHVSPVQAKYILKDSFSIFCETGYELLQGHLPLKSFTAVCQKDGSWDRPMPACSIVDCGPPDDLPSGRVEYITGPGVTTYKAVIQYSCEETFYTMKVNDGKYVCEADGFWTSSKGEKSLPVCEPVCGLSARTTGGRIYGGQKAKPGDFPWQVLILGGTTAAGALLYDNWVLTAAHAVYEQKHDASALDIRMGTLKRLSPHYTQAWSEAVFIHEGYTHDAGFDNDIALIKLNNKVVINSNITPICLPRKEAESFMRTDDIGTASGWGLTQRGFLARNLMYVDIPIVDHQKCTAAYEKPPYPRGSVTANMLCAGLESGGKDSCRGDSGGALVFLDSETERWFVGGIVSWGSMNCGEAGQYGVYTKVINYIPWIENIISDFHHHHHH
# Assay Notes: cell-based or functional assay
Numbered stars: 1 amine (or outer) side, 2 acyl side, 3 side chain; on linkers, the order of the positions; unused ones are H or OH. Bridge positions count the residues as written; N and C are the ends. Square brackets hold non-standard residues; d marks the D form. Ends that are not written are not given here. NH(CH2CH2O)5CH2CO = O=C(COCCOCCOCCOCCOCCN[*:1])[*:2]; NHCH2(1,3-C6H4)CH2CO = O=C(Cc1cccc(CN[*:1])c1)[*:2]; Pro(cis-4-CF3) = O=C(O)[C@@H]1C[C@H](C(F)(F)F)CN1; Oic = O=C(O)[C@@H]1C[C@@H]2CCCC[C@@H]2N1; PEG6 = NCCOCCOCCOCCOCCOCCOCCC(=O)O; tBuAla = CC(C)(C)C[C@H](N)C(=O)O; Pen = CC(C)(S)[C@H](N)C(=O)O; PEG3 = NCCOCCOCCOCCC(=O)O; Sar = CNCC(=O)O
Give 1.0 when the value for human MASP2 IC50 is at least 40 nM. Give 0.0 when it is less.

[Sar]ICSRS[tBuAla]PPI[Pen]IP[NH(CH2CH2O)5CH2CO]-OH (disulfide 3-11; N-terminus assumed; SMILES CC[C@H](C)[C@H](NC(=O)CNC)C(=O)N[C@H]1CSSC(C)(C)[C@@H](C(=O)N[C@H](C(=O)N2CCC[C@H]2C(=O)NCCOCCOCCOCCOCCOCC(=O)O)[C@@H](C)CC)NC(=O)[C@H]([C@@H](C)CC)NC(=O)[C@@H]2CCCN2C(=O)[C@@H]2CCCN2C(=O)[C@H](CC(C)(C)C)NC(=O)[C@H](CO)NC(=O)[C@H](CCCNC(=N)N)NC(=O)[C@H](CO)NC1=O) [((N-Me)G)-IC+SRS-((tBu)A)-PPI-(Pen)+IP-(PEG5-CH2CO2H(18 atoms))-OH]; 0.0
[dA]ICSRSLP[Oic]I[Pen]IP[NHCH2(1,3-C6H4)CH2CO]-OH (disulfide 3-11; N-terminus assumed; SMILES CC[C@H](C)[C@H](NC(=O)[C@@H](C)N)C(=O)N[C@H]1CSSC(C)(C)[C@@H](C(=O)N[C@H](C(=O)N2CCC[C@H]2C(=O)NCc2cccc(CC(=O)O)c2)[C@@H](C)CC)NC(=O)[C@H]([C@@H](C)CC)NC(=O)[C@@H]2C[C@@H]3CCCC[C@@H]3N2C(=O)[C@@H]2CCCN2C(=O)[C@H](CC(C)C)NC(=O)[C@H](CO)NC(=O)[C@H](CCCNC(=N)N)NC(=O)[C@H](CO)NC1=O) [aIC+SRSLP-(Oic)-I-(Pen)-+IP-(3-Aminomethylphenylacetic acid)-OH]; 0.0
[Sar]ICSRSLP[Oic]I[Pen]IPD[PEG3]-OH (disulfide 3-11; N-terminus assumed; SMILES CC[C@H](C)[C@H](NC(=O)CNC)C(=O)N[C@H]1CSSC(C)(C)[C@@H](C(=O)N[C@H](C(=O)N2CCC[C@H]2C(=O)N[C@@H](CC(=O)O)C(=O)NCCOCCOCCOCCC(=O)O)[C@@H](C)CC)NC(=O)[C@H]([C@@H](C)CC)NC(=O)[C@@H]2C[C@@H]3CCCC[C@@H]3N2C(=O)[C@@H]2CCCN2C(=O)[C@H](CC(C)C)NC(=O)[C@H](CO)NC(=O)[C@H](CCCNC(=N)N)NC(=O)[C@H](CO)NC1=O) [((N-Me)G)-IC+SRSLP-(Oic)-I-(Pen)+IPD-(PEG2(13 atoms))-OH]; 1.0
[Sar]ICSRS[tBuAla]PPI[Pen]IP[PEG3]-OH (disulfide 3-11; N-terminus assumed; SMILES CC[C@H](C)[C@H](NC(=O)CNC)C(=O)N[C@H]1CSSC(C)(C)[C@@H](C(=O)N[C@H](C(=O)N2CCC[C@H]2C(=O)NCCOCCOCCOCCC(=O)O)[C@@H](C)CC)NC(=O)[C@H]([C@@H](C)CC)NC(=O)[C@@H]2CCCN2C(=O)[C@@H]2CCCN2C(=O)[C@H](CC(C)(C)C)NC(=O)[C@H](CO)NC(=O)[C@H](CCCNC(=N)N)NC(=O)[C@H](CO)NC1=O) [((N-Me)G)-IC+SRS-((tBu)A)-PPI-(Pen)+IP-(PEG2(13 atoms))-OH]; 1.0
AICSRSL[(1S,2S,5R)‑3‑Azabicyclo(3.1.0)hexane‑2‑carboxylic acid]PI[Pen]IPD-OH (disulfide 3-11) [AIC+SRSL-((1S,2S,5R)-3-Azabicyclo[3.1.0]hexane-2-carboxylic acid)-PI-(Pen)+IPD-OH]; 0.0

I'd appreciate it if you could say whether AICSRSLP[Pro(cis-4-CF3)]ICIPD-OH (disulfide 3-11; N-terminus assumed; SMILES CC[C@H](C)[C@H](NC(=O)[C@H](C)N)C(=O)N[C@H]1CSSC[C@@H](C(=O)N[C@H](C(=O)N2CCC[C@H]2C(=O)N[C@@H](CC(=O)O)C(=O)O)[C@@H](C)CC)NC(=O)[C@H]([C@@H](C)CC)NC(=O)[C@@H]2C[C@H](C(F)(F)F)CN2C(=O)[C@@H]2CCCN2C(=O)[C@H](CC(C)C)NC(=O)[C@H](CO)NC(=O)[C@H](CCCNC(=N)N)NC(=O)[C@H](CO)NC1=O) [AIC+SRSLP-((4-CF3)P)-IC+IPD-OH] has human MASP2 IC50 at least equal to 40 nM.
1.0

I'd appreciate it if you could say whether [Sar]ICSRSLP[Oic]I[Pen]IP[PEG6]-OH (disulfide 3-11; N-terminus assumed; SMILES CC[C@H](C)[C@H](NC(=O)CNC)C(=O)N[C@H]1CSSC(C)(C)[C@@H](C(=O)N[C@H](C(=O)N2CCC[C@H]2C(=O)NCCOCCOCCOCCOCCOCCOCCC(=O)O)[C@@H](C)CC)NC(=O)[C@H]([C@@H](C)CC)NC(=O)[C@@H]2C[C@@H]3CCCC[C@@H]3N2C(=O)[C@@H]2CCCN2C(=O)[C@H](CC(C)C)NC(=O)[C@H](CO)NC(=O)[C@H](CCCNC(=N)N)NC(=O)[C@H](CO)NC1=O) [((N-Me)G)-IC+SRSLP-(Oic)-I-(Pen)+IP-(PEG5(22 atoms))-OH] has human MASP2 IC50 at least equal to 40 nM.
1.0
